Tested on: MDA-MB-231 breast
Assay: NCI tumour cell line growth inhibition, 48 h
experimental-endpoint: TGI (µM)

>>> result_number("C=CCCCC(=O)CCC(=O)OCC1O[C@@H](O[C@@H]2C(O)[C@@H](OC(C)=O)C(C)O[C@H]2O[C@H](CC=C)CCCCC)C(O)[C@@H](OC(=O)/C(C)=C/C)[C@@H]1OC(=O)/C=C/c1ccccc1 (stereo partly drawn)")
0.0309
>>> result_number("O=C(CC1(O)C(=O)N(Cc2ccccc2)c2ccc(Br)cc21)c1ccc(C(=O)NCC2CCC3(CC2)OOC2(CCCCC2)OO3)cc1 (stereo not drawn)")
2.03
>>> result_number("O=c1cc(N2CCOCC2)oc2c(-c3ccc4c(c3)OCCO4)csc12")
14.5
>>> result_number("C[C@]12CC[C@H](O)C[C@@H]1CC[C@@H]1[C@@H]2CC[C@]2(C)[C@@H](c3cc(C(F)(F)F)n[nH]3)CC[C@@H]12")
18.9

----------
Tested on: NCI-H23 lung
Test: NCI tumour cell line growth inhibition, 48 h
experimental-endpoint: TGI

>>> result("CN(C)c1ccc(/C=C(/C(=O)O)c2csc(-c3nc(/C(=C\\c4ccc(N(C)C)cc4)C(=O)O)cs3)n2)cc1")
"> 100 µM"
>>> result("CCCCCCCCCCCCCCNc1nc(C(=O)OCC)ncc1-c1ccc(C(F)(F)F)cc1")
"> 100 µM"
>>> result("COc1ccc(NC(=O)c2sc3nc(C)c(C(=O)/C=C/c4ccccc4)cc3c2N)cc1")
"6.09 µM"
>>> result("Cc1ccncc1N1CCN(c2ccnc(Cl)c2)C1=O")
"> 100 µM"
>>> result("Cc1ccc(NC(=O)CSc2nnc(Cc3ccccc3)o2)c(C)c1")
"> 100 µM"
>>> result("O=S(=O)(Cc1nc2ccccc2s1)c1nc2ccccc2s1")
"38.9 µM"
>>> result("CCCCCC/C=C\\CCCCCCCCCc1cc(O)cc(OC)c1O")
"1.29 µM"
>>> result("O=C1CCC(=O)N1CNc1cccc(NCN2C(=O)CCC2=O)c1")
"> 100 µM"
>>> result("Cn1ccnc1C(=O)/C=C/c1ccc(C(=O)Nc2ccccc2F)cc1")
"9.43 µM"
>>> result("COc1nc(NC2OCC(O)C(O)C2O)c(NC2OCC(O)C(O)C2O)c(=O)n1C (stereo not given)")
"> 100 µM"

----------
Tested on: HCT-15 colon
Assay: NCI tumour cell line growth inhibition, 48 h; in the data active means GI50 below about 0.43 µM; inactive means the rest
Outcome codes: yes (1) = active, no (0) = inactive

>>> classification("COc1ccc(C(=O)/C=C/c2ccc(OCc3ccc(Cl)cc3)cc2)cc1OC")
"no (0)"
>>> classification("CC12CC[C@@H]3c4cc5c(cc4CC[C@H]3[C@@H]1CCC2O)oc1cc(F)ccc15 (some centres undefined)")
"no (0)"
>>> classification("COc1cc2c3c(n(CCCNCCCNCCCn4c5c(c6cc(OC)c(OC)cc6c4=O)C(=O)c4ccccc4-5)c(=O)c2cc1OC)-c1ccccc1C3=O")
"no (0)"
>>> classification("O=c1cc(N2CCOCC2)oc2c(-c3ccc4c(c3)OCCO4)csc12")
"no (0)"
>>> classification("O=C(N/N=C\\c1cc(Cl)ccc1O)c1ccncc1")
"no (0)"
>>> classification("Nc1c(C(=O)Nc2ccccc2)sc2nc3c(cc12)C(O)CCC3 (centres undefined)")
"yes (1)"
>>> classification("CCC(=O)Oc1cc(/C=C/C(=O)O[C@H]2C[C@H]3CN4CCc5c([nH]c6cc(OC)ccc56)[C@@H]4C[C@@H]3[C@@H](C(=O)OC)[C@@H]2OC)ccc1OC")
"no (0)"
>>> classification("Cc1c(-c2ccc(O)c(O)c2)oc(=O)c2c(O)cc(O)cc12")
"no (0)"
>>> classification("NCCOc1ncccc1/C=C1\\C2C=CC=CC2C2C=CC(F)=CC12 (centres undefined)")
"no (0)"
